target: CDK12 (nuclear staining in CAL-120 cells) (Homo sapiens); construct: endogenous in cells; host or cells: CAL-120 human breast cancer cells (DSMZ ACC 459); assay: CDK12 nuclear protein level: immunofluorescence/high content analysis (CAL-120); format: cell-based; conditions: ratio of IC50 CDK12 high ATP kinase assay to DC50 CDK12 degradation (IF, CAL-120)
property-measured: (IC50 CDK12 high ATP) to (Degradation DC50 CDK12) ratio

Task: Fill in the blank: the reported (IC50 CDK12 high ATP) to (Degradation DC50 CDK12) ratio of Fc1ccc2[nH]c(CNc3nc(N4CCOCC4)nc4c(-c5nccs5)cnn34)nc2c1F is ____.
Result: >1012

Task: Fill in the blank: the reported (IC50 CDK12 high ATP) to (Degradation DC50 CDK12) ratio of CN1CCCC2CN(c3nc(NCc4nc5ccccc5[nH]4)n4ncc(Br)c4n3)CC21 (stereo not shown) is ____.
Result: >590

Task: Fill in the blank: the reported (IC50 CDK12 high ATP) to (Degradation DC50 CDK12) ratio of CC(C)c1cnn2c(NCc3nnc(-c4ccccc4)[nH]3)nc(N3CCN(C)CC3)nc12 is ____.
Result: >467

// below: (IC50 CDK12 high ATP) to (Degradation DC50 CDK12) ratio requested for another compound
Task: Fill in the blank: the reported (IC50 CDK12 high ATP) to (Degradation DC50 CDK12) ratio of Brc1cnn2c(NCc3nc4ccccc4[nH]3)nc(OC3CCNCC3)nc12 is ____.
Result: >446

----------
molecular target: CDK12 (nuclear staining in CAL-120 cells) (Homo sapiens); construct: endogenous in cells; host or cells: CAL-120 human breast cancer cells (DSMZ ACC 459); experiment: CDK12 nuclear protein level: immunofluorescence/high content analysis (CAL-120); type: cell-based; details: ratio of IC50 CDK12 high ATP kinase assay to DC50 CDK12 degradation (IF, CAL-120)
property-measured: (IC50 CDK12 high ATP) to (Degradation DC50 CDK12) ratio

# annotated cases, reported (IC50 CDK12 high ATP) to (Degradation DC50 CDK12) ratio shown
Task: Fill in the blank: the reported (IC50 CDK12 high ATP) to (Degradation DC50 CDK12) ratio of OCCNc1nc(NCc2nc3ccccc3[nH]2)n2ncc(Br)c2n1 is ____.
Result: >425

Task: Fill in the blank: the reported (IC50 CDK12 high ATP) to (Degradation DC50 CDK12) ratio of CCNc1nc(NCc2nnc(-c3ccccc3)[nH]2)n2ncc(C(C)C)c2n1 is ____.
Result: >153

// below: (IC50 CDK12 high ATP) to (Degradation DC50 CDK12) ratio requested for another compound
Task: Fill in the blank: the reported (IC50 CDK12 high ATP) to (Degradation DC50 CDK12) ratio of Brc1cnn2c(NCc3nc4ccccc4[nH]3)nc(OC3CCOCC3)nc12 is ____.
Result: >176

----------
target: CYCLIN K (nuclear staining in CAL-120 cells) (Homo sapiens); construct: endogenous in cells; host or cells: CAL-120 human breast cancer cells (DSMZ ACC 459); test: CYCLIN K nuclear protein level: immunofluorescence high content analysis (CAL-120); type: cell-based; settings: 24 h, 50% reduction of nuclear CCNK staining intensity, median, read-out: CYCLIN K degradation IF, DC50-[mol/l] (median)
Sequence (O75909 whole entry): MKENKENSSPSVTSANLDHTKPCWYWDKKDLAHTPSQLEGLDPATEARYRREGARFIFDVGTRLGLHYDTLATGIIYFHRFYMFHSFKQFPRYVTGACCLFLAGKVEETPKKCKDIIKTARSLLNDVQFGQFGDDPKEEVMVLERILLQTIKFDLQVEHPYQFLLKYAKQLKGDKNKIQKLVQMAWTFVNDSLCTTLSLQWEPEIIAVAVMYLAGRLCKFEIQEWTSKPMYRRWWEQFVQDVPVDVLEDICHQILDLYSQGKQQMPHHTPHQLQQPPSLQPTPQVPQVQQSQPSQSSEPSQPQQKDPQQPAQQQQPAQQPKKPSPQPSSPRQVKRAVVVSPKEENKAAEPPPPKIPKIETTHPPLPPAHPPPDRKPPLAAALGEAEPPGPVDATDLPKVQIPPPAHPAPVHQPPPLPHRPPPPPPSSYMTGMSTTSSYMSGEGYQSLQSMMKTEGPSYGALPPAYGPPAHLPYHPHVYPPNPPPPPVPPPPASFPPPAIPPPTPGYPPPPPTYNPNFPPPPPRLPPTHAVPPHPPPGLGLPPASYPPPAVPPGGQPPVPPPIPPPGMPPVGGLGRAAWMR
Sequence (Q9NYV4 whole entry partner): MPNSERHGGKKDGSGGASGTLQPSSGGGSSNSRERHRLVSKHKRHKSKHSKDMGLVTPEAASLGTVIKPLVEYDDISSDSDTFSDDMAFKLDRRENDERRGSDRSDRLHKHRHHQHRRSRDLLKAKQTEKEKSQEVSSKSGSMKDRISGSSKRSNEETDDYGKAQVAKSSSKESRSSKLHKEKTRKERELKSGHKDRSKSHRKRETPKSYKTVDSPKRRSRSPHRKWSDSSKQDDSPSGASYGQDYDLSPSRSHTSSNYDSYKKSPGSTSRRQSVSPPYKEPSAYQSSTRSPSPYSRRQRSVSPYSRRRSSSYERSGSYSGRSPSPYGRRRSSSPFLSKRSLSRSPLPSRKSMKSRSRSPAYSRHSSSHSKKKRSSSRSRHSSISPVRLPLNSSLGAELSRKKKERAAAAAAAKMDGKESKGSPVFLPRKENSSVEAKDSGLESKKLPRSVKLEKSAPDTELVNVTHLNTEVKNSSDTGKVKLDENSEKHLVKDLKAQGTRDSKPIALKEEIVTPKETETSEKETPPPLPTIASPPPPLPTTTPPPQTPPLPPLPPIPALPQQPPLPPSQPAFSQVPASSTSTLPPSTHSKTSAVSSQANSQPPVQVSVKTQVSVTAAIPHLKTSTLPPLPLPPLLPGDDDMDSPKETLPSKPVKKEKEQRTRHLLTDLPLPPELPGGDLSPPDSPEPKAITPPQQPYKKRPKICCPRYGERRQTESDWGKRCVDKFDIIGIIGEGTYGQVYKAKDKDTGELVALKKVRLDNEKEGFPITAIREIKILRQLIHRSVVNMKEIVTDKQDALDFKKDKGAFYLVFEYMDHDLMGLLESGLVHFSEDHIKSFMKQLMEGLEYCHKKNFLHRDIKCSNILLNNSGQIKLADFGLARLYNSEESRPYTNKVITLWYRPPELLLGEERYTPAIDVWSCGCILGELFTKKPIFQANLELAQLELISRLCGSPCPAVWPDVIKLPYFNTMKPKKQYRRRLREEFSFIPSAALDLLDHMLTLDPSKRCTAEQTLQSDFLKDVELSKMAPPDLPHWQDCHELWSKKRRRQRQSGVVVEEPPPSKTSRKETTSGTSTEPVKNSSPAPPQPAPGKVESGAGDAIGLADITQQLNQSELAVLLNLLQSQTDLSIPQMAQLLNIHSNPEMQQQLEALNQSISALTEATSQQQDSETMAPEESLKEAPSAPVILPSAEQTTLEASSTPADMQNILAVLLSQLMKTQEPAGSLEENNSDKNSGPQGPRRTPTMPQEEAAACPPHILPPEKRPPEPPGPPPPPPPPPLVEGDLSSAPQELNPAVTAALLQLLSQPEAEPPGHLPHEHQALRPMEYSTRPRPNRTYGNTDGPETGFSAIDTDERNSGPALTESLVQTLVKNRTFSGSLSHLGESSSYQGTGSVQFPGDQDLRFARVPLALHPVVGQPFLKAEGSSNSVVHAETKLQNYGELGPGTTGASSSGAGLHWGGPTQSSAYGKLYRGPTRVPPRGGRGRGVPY
property-measured: DC50 (nM)

# annotated cases, reported DC50 shown
Task: Fill in the blank: the reported DC50 of COc1cccc2[nH]c(CNc3nc(N4CCOCC4)nc4c(C5CC5)cnn34)nc12 [Example 213] is ____.
Result: 1.55

Task: Fill in the blank: the reported DC50 of CC(C)c1cnn2c(NCc3nc4ccccc4[nH]3)nc(N3CCCOCC3)nc12 [Example 8] is ____.
Result: 26.9

Task: Fill in the blank: the reported DC50 of Clc1cc2nc(CNc3nc(N4CC5CCC(C4)N5)nc4c(Br)cnn34)[nH]c2cc1Cl [Example 334] is ____.
Result: 2.06

A: FC(F)(F)c1ccccc1-c1cnc(CNc2nc(N3CCOCC3)nc3c(Br)cnn23)[nH]1 [Example 88]
B: CC1(C)CN(c2nc(NCc3nc4ccccc4[nH]3)n3ncc(Br)c3n2)CCN1 [Example 216]
Task: // which entry has the larger DC50 value, A or B ? # answer = label of selected item
Result: A
